Test system: methicillin resistant Staphylococcus aureus (MRSA) biofilm
DETAILS: approximate peptide concentration […] (around 3 μg/ml); compared to untreated samples
Protocol: Methods of assessment of anti-biofilm activity—Biofilm formation was initially analyzed using a static abiotic solid surface assay as described elsewhere (de la Fuente-Nunez et al., 2012). […] Peptide was added at time zero (prior to adding the diluted, overnight cultures) in varying concentrations, and the decrease in biofilm formation was recorded at 22-46 h for most bacteria. […]
Ends that are not written are not given here.
Cut-off 60% on % Biofilm inhibition, inclusive. At or above means Fulfilled; below means Not fulfilled.

Worked set:
HH2-A5: single substituted HH2 peptide (VQLRARVAVIRA-NH2)	Not fulfilled
1002-A3: single substituted 1002 peptide (VQAWLIVWRIRK-NH2) [Peptide 1002-A3]	Fulfilled
HH2-G12: single substituted HH2 peptide (VQLRIRVAVIRG-NH2)	Fulfilled

Query: Has 1018-A1: single substituted 1018 peptide (ARLIVAVRIWRR-NH2) [Peptide 1018-A1] a recorded % Biofilm inhibition greater than or equal to 60%?
Result: Not fulfilled

Query: Has 1002-Q6: single substituted 1002 peptide (VQRWLQVWRIRK-NH2) [Peptide 1002-Q6] a recorded % Biofilm inhibition greater than or equal to 60%?
Result: Not fulfilled

----------
Test system: LPS-stimulated human peripheral blood mononuclear cells (IL1-β)
Type: cell-based
DETAILS: Table 12; cells stimulated with 10 ng/ml LPS; LPS alone 1313 (HH2 derivatives), 1927 (1018 derivatives), 2455 (1002 and hybrid peptides) pg/ml
Ends that are not written are not given here.
Cut-off 400 pg/mL on IL1β Production, inclusive. At or above means met; below means not met.

Worked set:
HH2-G11: single substituted HH2 peptide (VQLRIRVAVIGA-NH2)	met
1002-W5: single substituted 1002 peptide (VQRWWIVWRIRK-NH2) [Peptide 1002-W5]	not met
1002-W12: single substituted 1002 peptide (VQRWLIVWRIRW-NH2) [Peptide 1002-W12]	not met
1018-V2: single substituted 1018 peptide (VVLIVAVRIWRR-NH2) [Peptide 1018-V2]	not met
1002-I8: single substituted 1002 peptide (VQRWLIVIRIRK-NH2) [Peptide 1002-I8]	not met

Query: Has 1018-R1: single substituted 1018 peptide (RRLIVAVRIWRR-NH2) [Peptide 1018-R1] a recorded IL1β Production greater than or equal to 400 pg/mL?
Result: not met

Query: Has 1002-I3: single substituted 1002 peptide (VQIWLIVWRIRK-NH2) [Peptide 1002-I3] a recorded IL1β Production greater than or equal to 400 pg/mL?
Result: not met

Query: Has 1002-K7: single substituted 1002 peptide (VQRWLIKWRIRK-NH2) [Peptide 1002-K7] a recorded IL1β Production greater than or equal to 400 pg/mL?
Result: not met

Query: Has 1018-I1: single substituted 1018 peptide (IRLIVAVRIWRR-NH2) [Peptide 1018-I1] a recorded IL1β Production greater than or equal to 400 pg/mL?
Result: not met

Query: Has 1018-A9: single substituted 1018 peptide (VRLIVAVRAWRR-NH2) [Peptide 1018-A9] a recorded IL1β Production greater than or equal to 400 pg/mL?
Result: met

Query: Has HH2-Q11: single substituted HH2 peptide (VQLRIRVAVIQA-NH2) a recorded IL1β Production greater than or equal to 400 pg/mL?
Result: met

Query: Has 1018-I11: single substituted 1018 peptide (VRLIVAVRIWIR-NH2) [Peptide 1018-I11] a recorded IL1β Production greater than or equal to 400 pg/mL?
Result: met

Query: Has 1002-A9: single substituted 1002 peptide (VQRWLIVWAIRK-NH2) [Peptide 1002-A9] a recorded IL1β Production greater than or equal to 400 pg/mL?
Result: not met

Query: Has 1018-K9: single substituted 1018 peptide (VRLIVAVRKWRR-NH2) [Peptide 1018-K9] a recorded IL1β Production greater than or equal to 400 pg/mL?
Result: not met

----------
Tested on: human peripheral blood mononuclear cells (MCP-1)
PROTOCOL_DETAILS: SPOT-synthesized derivative screen: production of chemokine MCP-1
Format: cell-based
DETAILS: Table 12A; No LPS; background subtracted (21.3 pg/ml)
Peptide text beside a SMILES is read from it.
MCP1 vs 10000 pg/mL: less than gives 1; not less than gives -1.

Worked set:
CC[C@H](C)[C@H](NC(=O)[C@H](CCCNC(=N)N)NC(=O)[C@@H](NC(=O)[C@H](CCCCN)NC(=O)[C@@H](NC(=O)[C@@H](NC(=O)[C@@H](NC(=O)[C@H](CCCNC(=N)N)NC(=O)[C@@H](N)C(C)C)C(C)C)[C@@H](C)CC)C(C)C)C(C)C)C(=O)N[C@@H](CCCNC(=N)N)C(=O)N[C@@H](CCCNC(=N)N)C(=O)N[C@@H](CCCNC(=N)N)C(N)=O [Peptide 2004] (H-VRVIVKVRIRRR-NH2; N-terminus assumed)	1
CC[C@H](C)[C@H](NC(=O)[C@H](CCCNC(=N)N)NC(=O)[C@@H](NC(=O)[C@H](C)NC(=O)[C@@H](NC(=O)[C@@H](NC(=O)[C@H](CC(C)C)NC(=O)[C@H](CCCNC(=N)N)NC(=O)[C@@H](N)C(C)C)[C@@H](C)CC)C(C)C)C(C)C)C(=O)N[C@@H](CCCNC(=N)N)C(=O)N[C@@H](CCCNC(=N)N)C(=O)N[C@@H](CCCNC(=N)N)C(N)=O [Peptide 2002] (H-VRLIVAVRIRRR-NH2; N-terminus assumed)	1
CC[C@H](C)[C@H](NC(=O)[C@H](CCCNC(=N)N)NC(=O)[C@H](Cc1c[nH]c2ccccc12)NC(=O)[C@H](CCCNC(=N)N)NC(=O)[C@@H](NC(=O)[C@H](CC(C)C)NC(=O)[C@H](CC(C)C)NC(=O)[C@H](CCCNC(=N)N)NC(=O)[C@H](Cc1c[nH]c2ccccc12)NC(=O)[C@@H](N)CCCCN)[C@@H](C)CC)C(=O)N[C@@H](CCC(N)=O)C(=O)N[C@@H](CCCCN)C(N)=O [Peptide 2009] (H-KWRLLIRWRIQK-NH2; N-terminus assumed)	-1
CC[C@H](C)[C@H](NC(=O)[C@H](CCCNC(=N)N)NC(=O)[C@@H](NC(=O)[C@H](CCCCN)NC(=O)[C@@H](NC(=O)[C@@H](NC(=O)[C@H](CC(C)C)NC(=O)[C@H](CCCNC(=N)N)NC(=O)[C@@H](N)C(C)C)[C@@H](C)CC)C(C)C)C(C)C)C(=O)N[C@@H](CCCNC(=N)N)C(=O)N[C@@H](CCCNC(=N)N)C(=O)N[C@@H](CCCNC(=N)N)C(N)=O [Peptide 2003] (H-VRLIVKVRIRRR-NH2; N-terminus assumed)	-1
CC[C@H](C)[C@H](NC(=O)[C@H](CCCNC(=N)N)NC(=O)[C@H](CC(C)C)NC(=O)[C@H](CCC(N)=O)NC(=O)[C@@H](N)Cc1c[nH]c2ccccc12)C(=O)N[C@@H](CCCNC(=N)N)C(=O)N[C@H](C(=O)N[C@@H](CCCCN)C(=O)N[C@H](C(=O)N[C@H](C(=O)N[C@@H](CCCNC(=N)N)C(=O)N[C@@H](CCCCN)C(N)=O)[C@@H](C)CC)C(C)C)C(C)C [Peptide 2012] (H-WQLRIRVKVIRK-NH2; N-terminus assumed)	1

Query: Is MCP1 strictly under 10000 pg/mL for the entry CC[C@H](C)[C@H](NC(=O)[C@H](CCCNC(=N)N)NC(=O)[C@H](CC(C)C)NC(=O)[C@H](CCC(N)=O)NC(=O)[C@@H](N)C(C)C)C(=O)N[C@@H](CCCNC(=N)N)C(=O)N[C@H](C(=O)N[C@@H](CCCCN)C(=O)N[C@H](C(=O)N[C@H](C(=O)N[C@@H](CCCNC(=N)N)C(=O)N[C@@H](CCCCN)C(N)=O)[C@@H](C)CC)C(C)C)C(C)C [Peptide 2011] (H-VQLRIRVKVIRK-NH2; N-terminus assumed) ?
Result: 1

Query: Is MCP1 strictly under 10000 pg/mL for the entry CC[C@H](C)[C@H](NC(=O)[C@H](CCCNC(=N)N)NC(=O)[C@@H](NC(=O)[C@H](CCCNC(=N)N)NC(=O)[C@@H](NC(=O)[C@@H](NC(=O)[C@H](CC(C)C)NC(=O)[C@H](CCCNC(=N)N)NC(=O)[C@@H](N)C(C)C)[C@@H](C)CC)C(C)C)C(C)C)C(=O)N[C@@H](Cc1c[nH]c2ccccc12)C(=O)N[C@@H](CCCNC(=N)N)C(=O)N[C@@H](CCCNC(=N)N)C(N)=O [Peptide 2005] (H-VRLIVRVRIWRR-NH2; N-terminus assumed) ?
Result: -1

Query: Is MCP1 strictly under 10000 pg/mL for the entry CC[C@H](C)[C@H](NC(=O)[C@@H](NC(=O)[C@H](CCCCN)NC(=O)[C@@H](NC(=O)[C@H](CCCNC(=N)N)NC(=O)[C@H](CCCNC(=N)N)NC(=O)[C@@H](NC(=O)[C@H](CCCNC(=N)N)NC(=O)[C@H](CCC(N)=O)NC(=O)[C@@H](N)Cc1c[nH]c2ccccc12)C(C)C)C(C)C)C(C)C)C(=O)N[C@@H](CCCNC(=N)N)C(=O)N[C@@H](CCCCN)C(N)=O [Peptide 2013] (H-WQRVRRVKVIRK-NH2; N-terminus assumed) ?
Result: 1

Query: Is MCP1 strictly under 10000 pg/mL for the entry CC[C@H](C)[C@H](NC(=O)[C@H](CCCNC(=N)N)NC(=O)[C@@H](NC(=O)[C@H](CCCCN)NC(=O)[C@@H](NC(=O)[C@@H](NC(=O)[C@H](CC(C)C)NC(=O)[C@H](CCCNC(=N)N)NC(=O)[C@@H](N)C(C)C)[C@@H](C)CC)C(C)C)C(C)C)C(=O)N[C@@H](Cc1c[nH]c2ccccc12)C(=O)N[C@@H](CCCNC(=N)N)C(=O)N[C@@H](CCCNC(=N)N)C(N)=O [Peptide 2001] (H-VRLIVKVRIWRR-NH2; N-terminus assumed) ?
Result: -1
